B1: TOR1AIP2 (parent)
chain: YKYCDHENAAFKDVALVLTVLLEE

Variants of: B1
PROCEDURE_SUMMARY: protein stability index of a GFP-peptide fusion (GPS, HEK-293T) (PSI 1-6); higher = more stable;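 further: lentivirally expressed fusions sorted by FACS into six bins by GFP to DsRed ratio, PSI derived from sequencing read proportions per bin multiplied by bin number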
CONDITIONS_USED: c terminus: a fixed tail appended
Assign protein stability index to each entry below.
One number for each entry.

V20A | 1.06
V17E | 2.51
D5N | 2.94

Lab note: each variant below needs its protein stability index filled in.
1. V20E
2. L22R
3. L22N
4. A10P
5. A10L
6. L22Q
7. L21Q

Data returned:
1.73
2.7
3.49
1.16
2.83
1
1.73

Please give protein stability index, item by item, for the list that follows.
1. T19C
2. E23I
3. L16H
4. L16S
5. E23Q
6. A10M

Data returned:
5.95
2.81
1.9
2.2
2.07
1.93
